Below: compounds with pKi recorded for UniProt:P41594 in separate published works.
Please report pKi as the negative decimal logarithm of the molar concentration, giving only the number.

Past entries and their recorded results:
- entry-smiles: "CCn1ccc(-n2c(C)nc(C#Cc3cccc(C)c3)c2C)cc1=O"
  assayed-target: "UniProt:P41594"
  reading: 7.34
- entry-smiles: "COc1ccnc(-n2cc(C#Cc3ccnc(C)c3)nc2C)n1"
  assayed-target: "UniProt:P41594"
  reading: 7.74
- entry-smiles: "COc1cncc(-c2cnc(Nc3ccc(F)cn3)c3ncccc23)c1"
  assayed-target: "UniProt:P41594"
  reading: 7.39
- entry-smiles: "Cc1cccc(C(=O)N2CC/C(=C\\C#Cc3cccc(Cl)c3)C(C)(C)C2)c1"
  assayed-target: "UniProt:P41594"
  reading: 8.13
- entry-smiles: "Cc1nc(C#Cc2cccc(F)c2)c(C)n1-c1ccn(C)c(=O)c1"
  assayed-target: "UniProt:P41594"
  reading: 7.28
- entry-smiles: "Cc1cc(C#N)cc(C(=O)Nc2cccc(Cl)c2)n1"
  assayed-target: "UniProt:P41594"
  reading: 8.22
- entry-smiles: "Fc1ccc(Nc2ncc(-c3cccnc3)c3cccnc23)nc1"
  assayed-target: "UniProt:P41594"
  reading: 7.72
- entry-smiles: "Cc1cc(C#Cc2cn(-c3ccc(F)c(F)c3)c(C)n2)ccn1"
  assayed-target: "UniProt:P41594"
  reading: 7.60

Data request: For UniProt:P41594, provide pKi of CC1(C)CN(C(=O)c2cccc(Cl)c2)CC/C1=C\C#Cc1ccc(F)cc1 please.
Data returned: 8.40

Data request: For UniProt:P41594, provide pKi of Cc1cc(C#Cc2cn(C)c(C3CC3)n2)ccn1 please.
Data returned: 7.55

Data request: For UniProt:P41594, provide pKi of Cc1nc(C#Cc2ccnc(C#N)c2)cn1-c1ccc(Cl)nc1 please.
Data returned: 7.16

Data request: For UniProt:P41594, provide pKi of Clc1cccc(Nc2ncc(-c3ccc(Cl)nc3)c3cccnc23)c1 please.
Data returned: 8.10

###

Below: molecules with pKi recorded for Metabotropic glutamate receptor 5 (Homo sapiens, UniProt P41594) in separate published works.
Please report pKi as the negative decimal logarithm of the molar concentration, giving only the number.

Past entries and their recorded results:
- entry-smiles: "Cc1nc(C#Cc2ccnc(Cl)c2)c(C)n1-c1cccc(OC(F)(F)F)c1"
  assayed-target: "Metabotropic glutamate receptor 5 (Homo sapiens, UniProt P41594)"
  pKi: 7.85
- entry-smiles: "Fc1ccc(Nc2ncc(-c3cncc(F)c3)c3cccnc23)nc1"
  assayed-target: "Metabotropic glutamate receptor 5 (Homo sapiens, UniProt P41594)"
  pKi: 7.18
- entry-smiles: "Cc1nc(C#Cc2ccnc(Cl)c2)c(C)n1-c1ccc(Cl)nc1"
  assayed-target: "Metabotropic glutamate receptor 5 (Homo sapiens, UniProt P41594)"
  pKi: 7.07
- entry-smiles: "Cc1nccc(Nc2ncc(-c3cccc(S(C)(=O)=O)c3)c3sc(C)nc23)n1"
  assayed-target: "Metabotropic glutamate receptor 5 (Homo sapiens, UniProt P41594)"
  pKi: 6.89
- entry-smiles: "Cc1cc(C#N)cc(C(=O)Nc2ccc(Cl)cn2)n1"
  assayed-target: "Metabotropic glutamate receptor 5 (Homo sapiens, UniProt P41594)"
  pKi: 8.10

Data request: For Metabotropic glutamate receptor 5 (Homo sapiens, UniProt P41594), provide pKi of Cc1cccc(C#Cc2cn(-c3ccn(CS(C)(=O)=O)c(=O)c3)c(C)n2)c1 please.
Data returned: 6.25

Data request: For Metabotropic glutamate receptor 5 (Homo sapiens, UniProt P41594), provide pKi of Cc1cc(C#Cc2cn(CC(F)(F)F)c(C)n2)ccn1 please.
Data returned: 7.27

Data request: For Metabotropic glutamate receptor 5 (Homo sapiens, UniProt P41594), provide pKi of Cc1nc(C#Cc2ccnc(Cl)c2)cn1-c1cncc(=O)n1C please.
Data returned: 6.09

###

Below: compounds with Ki recorded for Metabotropic glutamate receptor 5 (Homo sapiens) in separate published works.
Numeric answer only, unit nM assumed.

- entry-smiles: "Cc1nc(C#Cc2ccnc(Cl)c2)c(C)n1-c1ccc(C(F)(F)F)cc1"
  value-units: "nM"
  Ki: 44
- entry-smiles: "Cc1cccc(NC(=O)c2cc(C#N)cc(C)n2)n1"
  value-units: "nM"
  Ki: 18
- entry-smiles: "Cc1cccc(C(=O)N2CC/C(=C\\C#Cc3cccc(Cl)c3)C(C)(C)C2)n1"
  value-units: "nM"
  Ki: 1.82
- entry-smiles: "Cc1ccc(Nc2cccc(C#N)c2)c(C(=O)Nc2nc(C(F)(F)F)cs2)n1"
  value-units: "nM"
  Ki: 367

Next up:
Data request: For Metabotropic glutamate receptor 5 (Homo sapiens), provide Ki of Cc1ccc(Nc2cccnc2)c(C(=O)Nc2ccc(F)cn2)n1 please.
Data returned: 21

###

Below: compounds with Ki recorded for Metabotropic glutamate receptor 5 (Homo sapiens) in separate published works.
Record the result as a number with its unit.

Past entries and their recorded results:
- compound: "Cc1ccc(-n2c(C)nc(C#Cc3ccnc(Cl)c3)c2C)nc1"
  Ki: "70 nM"
- compound: "O=C(NC12CC3CC(C1)CC(NC(=O)c1ccccn1)(C3)C2)c1ccccn1"
  Ki: "40 nM"
- compound: "O=C(Nc1cccc(Cl)c1)c1nccnc1Nc1cccnc1"
  Ki: "54 nM"
- compound: "Cc1csc(Nc2nccc3cccnc23)n1"
  Ki: "62 nM"
- compound: "Cc1cc(C#Cc2cn(C(C)c3ccccc3)c(C)n2)ccn1 (racemic)"
  Ki: "77 nM"
- compound: "Cc1cc(C#Cc2cn(C(C)C)c(C)n2)ccn1"
  Ki: "68 nM"
- compound: "CCN(C(=O)c1ccc(C#Cc2cccc(F)c2)cn1)C(C)(C)C"
  Ki: "42 nM"
- compound: "Cc1cc(C#Cc2cn(-c3cncc(C4CC4)n3)c(C)n2)ccn1"
  Ki: "27 nM"
- compound: "Cc1nc(C#Cc2ccnc(Cl)c2)cn1CC(F)(F)F"
  Ki: "95 nM"

Next up:
Data request: For Metabotropic glutamate receptor 5 (Homo sapiens), provide Ki of Cc1nc(C#Cc2ccnc(Cl)c2)cn1-c1cccc(=O)n1C please.
Data returned: 559 nM

###

Below: molecules with Ki recorded for Metabotropic glutamate receptor 5 (Homo sapiens) in separate published works.
Numeric answer only, unit nM assumed.

- entry-smiles: "Cc1cc(C#Cc2cn(CC3CC3)c(C)n2)ccn1"
  Ki / nM: 38
- entry-smiles: "Cc1nc(C#Cc2ccnc(Cl)c2)cn1-c1ccc(C2CC2)nc1"
  Ki / nM: 24
- entry-smiles: "Cc1nc(C#Cc2ccnc(Cl)c2)cn1-c1ccnc(C(F)(F)F)n1"
  Ki / nM: 23
- entry-smiles: "Cc1nc(C#Cc2cccc(Cl)c2)cn1-c1cnn(C)c(=O)c1"
  Ki / nM: 40
- entry-smiles: "Cc1nc(C(=O)Nc2cccc(Cl)c2)c(Nc2cccc(CNC(=O)OC(C)(C)C)c2)s1"
  Ki / nM: 40

Data request: For Metabotropic glutamate receptor 5 (Homo sapiens), provide Ki of Cc1cc(C#N)cc(C(=O)Nc2cccc(C(F)(F)F)c2)n1 please.
Data returned: 42

Data request: For Metabotropic glutamate receptor 5 (Homo sapiens), provide Ki of Cc1nc(C#Cc2cccc(Cl)c2)cn1-c1cccc(N2CCS(=O)(=O)CC2)n1 please.
Data returned: 68

Data request: For Metabotropic glutamate receptor 5 (Homo sapiens), provide Ki of O=C(c1cccc(Cl)c1)N1CC/C(=C\C#Cc2cccc(Cl)c2)C(F)(F)C1 please.
Data returned: 1.91

Data request: For Metabotropic glutamate receptor 5 (Homo sapiens), provide Ki of O=C(c1cnc(C#Cc2ccccc2)s1)N1CCOCC1 please.
Data returned: 860

###

pKi: −log10 of the molar value.
Below: compounds with pKi recorded for Metabotropic glutamate receptor 5 (Homo sapiens, UniProt P41594) in separate published works.
Decision: pKi compared against 7; not below it gives 1, below it gives -1.

As a guide, the following entries are already answered.
- entry-smiles: "CCn1ccc(-n2c(C)nc(C#Cc3cccc(Cl)c3)c2C)cc1=O"
  category: 1
- entry-smiles: "COCCn1ccc(-n2c(C)nc(C#Cc3ccnc(Cl)c3)c2C)cc1=O"
  category: -1
- entry-smiles: "Cc1ccc2c(-c3cccc(F)c3)cnc(Nc3ccn(C)n3)c2n1"
  category: 1
- entry-smiles: "Cc1nc(C#Cc2cccc(Cl)c2)cn1-c1ccn(CCO)c(=O)c1"
  category: -1
- entry-smiles: "Cc1cccc(-n2cc(C#Cc3cccc(C#N)c3)nc2C)n1"
  category: 1
- entry-smiles: "Cc1nc(C#Cc2cccc(Cl)c2)cn1-c1ccc(Cl)nn1"
  category: 1

Data request: Record Cc1nc(C#Cc2ccnc(Cl)c2)c(C)n1-c1ccc(F)c(Cl)c1 ; criterion: pKi no lower than 7. Met?
Data returned: 1

Data request: Record Cc1nc(C#Cc2ccnc(Cl)c2)c(C)n1-c1cc[nH]c(=O)c1 ; criterion: pKi no lower than 7. Met?
Data returned: -1
